B1: INTS4 (parent)
chain: AKQIMEETYKMEFMYSGVENKQVV

Variants of: B1
protocol.description: protein stability index of a GFP-peptide fusion (GPS, HEK-293T) (PSI 1-6); higher = more stable;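 further: lentivirally expressed fusions sorted by FACS into six bins by GFP to DsRed ratio, PSI derived from sequencing read proportions per bin multiplied by bin number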
test.parameters: c terminus: a fixed tail appended
endpoint.name: protein stability index
// print number alone

- variant.identifier: "A1Q"
  protein stability index: 2.52
- variant.identifier: "V23F"
  protein stability index: 1.16
- variant.identifier: "Y15G"
  protein stability index: 1.55
- variant.identifier: "E12M"
  protein stability index: 2.43
- variant.identifier: "E19V"
  protein stability index: 1.28
- variant.identifier: "T8W"
  protein stability index: 2.71

[ask] Recorded protein stability index for `M11C` , please?
[reply] 2.43

[ask] Recorded protein stability index for `M11G` , please?
[reply] 3.28

[ask] Recorded protein stability index for `E6D` , please?
[reply] 3.17
